- TESTED_TARGET: sigma-1 receptor (Cavia porcellus)
- Sequence (Q60492 whole entry): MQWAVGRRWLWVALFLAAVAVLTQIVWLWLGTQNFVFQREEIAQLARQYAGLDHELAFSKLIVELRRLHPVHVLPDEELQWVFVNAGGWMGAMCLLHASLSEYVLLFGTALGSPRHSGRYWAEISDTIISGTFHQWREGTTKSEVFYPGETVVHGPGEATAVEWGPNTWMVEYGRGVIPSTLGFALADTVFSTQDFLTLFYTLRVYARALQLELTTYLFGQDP
- EXPERIMENT_SUMMARY: Sigma-1 competitive binding, (+)-[3H]pentazocine, guinea pig liver membranes (Example 6);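 further: compounds tested over serial concentrations, 45 min incubation at 30 °C with membrane preparations, read-out is displacement of bound radioligand from the receptor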
- Set-up: from tissue; host or cells: guinea pig liver membranes
Provide the reported Ratio (σ2/σ1) of each item.
Output: the number by itself.

Entry under test: CCCCNCc1ccc([N+](=O)[O-])cc1 . Its Ratio (σ2/σ1) was 1.4622

Entry under test: CCCNCCc1ccc([N+](=O)[O-])cc1 . Its Ratio (σ2/σ1) was 23.8

Entry under test: CCCC[N+](CCCC)(CCCC)CCCC . Its Ratio (σ2/σ1) was 4.90

Entry under test: NCCCc1ccccc1 . Its Ratio (σ2/σ1) was 3.92

Entry under test: CCCCN(CCCC)CCCC . Its Ratio (σ2/σ1) was 6.41

Entry under test: CCCCN(CCCC)C(=O)CCc1ccc(F)cc1 . Its Ratio (σ2/σ1) was 3.94

Entry under test: CCCCN(CCCC)CCCc1ccc(F)cc1 . Its Ratio (σ2/σ1) was 38.7

Entry under test: CCCNCCc1ccc(F)cc1 . Its Ratio (σ2/σ1) was 2.53

====

Provide the reported pIC50 of each item.
- Tested on: SKOV-3
- EXPERIMENT_SUMMARY: Cytotoxicity assay SKOV-3
- Type: cell-based
- MEASUREMENT_PARAMETERS: Homo sapiens, SK-OV-3, HU Ovarian, read-out: IC50 (SE) growth inhibition
When answering, recall that pIC50 equals minus log10 of the concentration in mol/L, and write that number alone.

Entry under test: CCCCN(CCCC)CCCc1ccc(F)cc1 . Its pIC50 was 4.25

Entry under test: CCCN(CCCc1ccc(F)cc1)CCc1ccc(N)cc1 . Its pIC50 was 4.70

Entry under test: CCCCN(CCCC)CCCc1ccc([N+](=O)[O-])cc1 . Its pIC50 was 4.56

====

Provide the reported pKd of each item.
- TESTED_TARGET: sigma-1 receptor (Cavia porcellus)
- EXPERIMENT_SUMMARY: Affinity for the sigma-1 receptor (Table 3)
- Assay type: binding
- Parameters: from tissue
- MEASUREMENT_PARAMETERS: read-out: Sigma-1 KD
When answering, recall that pKd equals minus log10 of the concentration in mol/L, and write that number alone.

Entry under test: CCCCCCCNCCCc1ccc([N+](=O)[O-])cc1 . Its pKd was 8.24

Entry under test: CCCCCCCCCCCCNCCCc1ccc([N+](=O)[O-])cc1 . Its pKd was 9.41

Entry under test: CCCCCCCNCCCc1ccccc1 . Its pKd was 7.92

Entry under test: CCCN(CCCc1ccc([N+](=O)[O-])cc1)CCc1ccc(N)cc1 . Its pKd was 8.22

Entry under test: CCCCCCCCCCCCNCCCc1ccccc1 . Its pKd was 7.04

Entry under test: CCCCN(CCCC)CCCc1ccc(F)cc1 . Its pKd was 7.75

Entry under test: CCCCN(CCCC)CCCc1ccc([N+](=O)[O-])cc1 . Its pKd was 9.44

====

Each entry below carries its measured Ki, system: UniProt:Q60492.
State just the number; it will be interpreted in nM.

Entry under test: CCCCCCCCCCCCNCCCc1ccccc1 [Compound 1e, N-(3-Phenylpropyl)dodecan-1-amine] . Its Ki was 5300

Entry under test: CCCCCCCNCCCc1ccccc1 [Compound 1c, N-(3-Phenylpropyl)heptane-1-amine] . Its Ki was 15

Entry under test: CCCCCCCNCCCc1ccc([N+](=O)[O-])cc1 [Compound 1d] . Its Ki was 10

Entry under test: CCCCNCCCc1ccc([N+](=O)[O-])cc1 [Compound 1b, N-(3-(4-Nitrophenyl)propyl)butan-1-amine] . Its Ki was 3

Entry under test: CCCCCCCCCCCCNCCCc1ccc([N+](=O)[O-])cc1 [Compound 1f] . Its Ki was 5170

Ref: patent US8946302B2
